Where these numbers come from: patent US6642217B2

# Test system: Epidermophyton floccosum
# Experimental Details: Agar dilution method, growth on Sabouraud dextrose agar slants
# Format: cell-based
# Set-up: key: +++: Maximum Fungal Growth; ++: Moderate Fungal Growth; +: Minimum Fungal Growth; +/−: Very little Fungal Growth; −: No Fungal Growth
# Assay Conditions: 250 μg/ml; 12th day after inoculation
Endpoint Label: Fungal growth

C=C(C)[C@@H]1CC[C@]2(COC(=O)c3ccccc3C(=O)O)CC[C@]3(C)[C@H](CC[C@@H]4[C@@]5(C)CC[C@H](OC(=O)c6ccccc6C(=O)O)C(C)(C)[C@@H]5CC[C@]43C)[C@@H]12 [Betulin-3,28-diphthalate]	++
C=C(C)[C@@H]1CC[C@]2(COC(=O)COCC(=O)O)CC[C@]3(C)[C@H](CC[C@@H]4[C@@]5(C)CC[C@H](OC(=O)COCC(=O)O)C(C)(C)[C@@H]5CC[C@]43C)[C@@H]12 [Betulin-3,28-didiglycolate]	+
CC1(C)CCC23CC[C@@]4(C)C(CCC5[C@@]6(C)CCC(OC(=O)CCC(=O)O)C(C)(C)C6CC[C@]54C)C2C1OC3 (some centres unmarked) [Allobetulin-3-succinate]	+
C=C(C)C1CCC2(COC(=O)CCC(=O)O)CC[C@@]3(C)C(CCC4[C@@]5(C)CCC(O)C(C)(C)C5CC[C@]43C)C12 (some centres unmarked) [Betulin-28-succinate]	+

Please turn your attention to the following entry.
[ask] Need Fungal growth of C=C(C)C1CCC2(COC(=O)CCC(=O)O)CC[C@@]3(C)C(CCC4[C@@]5(C)CCC(OC(=O)CCC(=O)O)C(C)(C)C5CC[C@]43C)C12 (some centres unmarked) [Betulin-3,28-disuccinate] , thanks.
[reply] +

====

# System: Trichophyton rubrum
# Experimental Details: Agar dilution method, growth on Sabouraud dextrose agar slants
# Type: cell-based
# Set-up: key: +++: Maximum Fungal Growth; ++: Moderate Fungal Growth; +: Minimum Fungal Growth; +/−: Very little Fungal Growth; −: No Fungal Growth
# Assay Conditions: 500 μg/ml; 12th day after inoculation
Endpoint Label: Fungal growth

Solved cases (7 shown):
C=C(C)C1CCC2(CO)CCC3(C)C(CCC4C5(C)CCC(OC(=O)C=CC(=O)O)C(C)(C)C5CCC43C)C12 (centres unmarked) [Betulin-3-maleate]	+
C=C(C)C1CCC2(COC(=O)CCC(=O)O)CC[C@@]3(C)C(CCC4[C@@]5(C)CCC(OC(=O)CCC(=O)O)C(C)(C)C5CC[C@]43C)C12 (some centres unmarked) [Betulin-3,28-disuccinate]	+
C=C(C)[C@@H]1CC[C@]2(COC(=O)COCC(=O)O)CC[C@]3(C)[C@H](CC[C@@H]4[C@@]5(C)CC[C@H](OC(=O)COCC(=O)O)C(C)(C)[C@@H]5CC[C@]43C)[C@@H]12 [Betulin-3,28-didiglycolate]	+
C=C(C)C1CCC2(COC(=O)CCC(=O)O)CC[C@@]3(C)C(CCC4[C@@]5(C)CCC(O)C(C)(C)C5CC[C@]43C)C12 (some centres unmarked) [Betulin-28-succinate]	+
CC1(C)CCC23CC[C@@]4(C)C(CCC5[C@@]6(C)CCC(OC(=O)CCC(=O)O)C(C)(C)C6CC[C@]54C)C2C1OC3 (some centres unmarked) [Allobetulin-3-succinate]	−
C=C(C)[C@@H]1CC[C@]2(COC(=O)c3ccccc3C(=O)O)CC[C@]3(C)[C@H](CC[C@@H]4[C@@]5(C)CC[C@H](OC(=O)c6ccccc6C(=O)O)C(C)(C)[C@@H]5CC[C@]43C)[C@@H]12 [Betulin-3,28-diphthalate]	+
COC1=CC(=O)C[C@@H](C)[C@]12Oc1c(Cl)c(OC)cc(OC)c1C2=O [Griseofulvin, reference compound]	−

The record that follows has no Fungal growth shown yet.
[ask] For the compound shown here, C[C@@H]1[C@H](O)[C@@H](C)/C=C/C=C/CC/C=C/C=C/C=C/C=C/C(O[C@H]2O[C@H](C)[C@@H](O)[C@H](N)[C@@H]2O)CC2O[C@](O)(CC(O)C(O)CCC(O)CC(O)CC(O)CC(=O)O[C@H]1C)CC(O)C2C(=O)O (some centres unmarked) [Nystatin, reference compound] , give the reported Fungal growth.
[reply] +/−
